Known growth of a selection of molecules
- Test system: SK-MEL-28 melanoma
- experimental-details: NCI-60 one-dose screen, 48 h (100 = growth as untreated, 0 = no growth, -100 = all killed)
- setup-conditions: 10 µM unless noted
The panel holds about 83,000 compounds, 20% with a hit somewhere; the sample as a whole holds those more often.
State the answer as a number, implicitly in %.

molecule | target-entity | growth / %
O=C(O)c1ccc(NC(=O)c2ccc(-c3cccc([N+](=O)[O-])c3)o2)cc1 | SK-MEL-28 melanoma | 107

Summary: N#Cc1nnn(-c2ccc(S(N)(=O)=O)cc2)c1NCC(=O)c1ccccc1 , SK-MEL-28 melanoma, growth = 111

Summary: O=S(=O)(Nc1ccc(NS(=O)(=O)c2ccccc2)c(Cl)c1)c1ccccc1 , SK-MEL-28 melanoma, growth = 107

Summary: COCCNc1ccc2c3c(cccc13)C(=O)N(CCN(C)C)C2=O , SK-MEL-28 melanoma, growth = 37.5

Summary: Cn1cc(-c2nonc2-c2c[nH]c3ccc(F)cc23)c2cccnc21 , SK-MEL-28 melanoma, growth = 98.4

Summary: COc1ccc(-c2cc(=O)c3c(OC)c4ccoc4cc3o2)cc1 , SK-MEL-28 melanoma, growth = 118

Summary: CC1SC(c2ccc(N(C)C)cc2)N(NC(=O)C(O)(c2ccccc2)c2ccccc2)C1=O (stereo not given) , SK-MEL-28 melanoma, growth = 111

Summary: O=C1OCC2=C1C(c1ccncc1)c1cc3c(cc1N2CCO)OCO3 (stereo not given) , SK-MEL-28 melanoma, growth = 102

Summary: CC(C)n1c(/C=C/[C@@H](O)C[C@@H](O)CC(=O)O)c(-c2ccc(F)cc2)c2ccccc21 , SK-MEL-28 melanoma, growth = 72.9

Summary: CCOc1cc2ncc(C#N)c(Nc3ccc(F)c(Cl)c3)c2cc1NC(=O)CC1CCSS1 (stereo not given) , SK-MEL-28 melanoma, growth = -79.1

====

- System: NCI-H226 lung
- experimental-details: NCI-60 one-dose screen, 48 h
- setup-conditions: 10 µM unless noted
Compounds without any hit were thinned out: in the full panel of roughly 83,000, 20% have a hit. Active and inactive are the calls of the source. The calls were made as follows: active = growth percent below 10; inactive = the rest.
Return exactly one item of Yes (active), No (inactive)

Below are worked cases with known answers.
compound | target-entity | cat
N#C/C(=C\c1ccc(-c2cc(C(F)(F)F)ccc2Cl)o1)c1nc(-c2ccco2)cs1 | NCI-H226 lung | No
COc1cccc(-c2nn(C(C)(C)C)cc2-c2ccnc(NCCCNS(=O)(=O)c3cccc4ccccc34)c2)c1 | NCI-H226 lung | No
CCCCCCN(CCCCCC)CCC(O)c1ccc2ccccc2c1 (configuration not stated) | NCI-H226 lung | No
CCN1CCC2(CC1)NC(=O)c1c(c3ccc(Cl)c(Cl)c3n1C)C2C#N (configuration not stated) | NCI-H226 lung | No
C=CCSSC1N=CNc2nc[nH]c21 (configuration not stated) | NCI-H226 lung | No
Cc1cc(N2CCSCC2)nc(NC2CCCC(Nc3ccnc4cc(Cl)ccc34)C2)n1 (configuration not stated) | NCI-H226 lung | No

IN: // return assay outcome for NC(=NCCCOc1ccc(Cl)cc1)Nc1ccc(Cl)cc1
OUT: No

====

- Tested on: T-47D breast
- experimental-details: NCI-60 one-dose screen, 48 h
- setup-conditions: 10 µM unless noted
This is part of a sample that, as a whole, favours compounds with a hit. Of some 83,000 tested, about 20% had one in any assay. Active and inactive are the calls of the source. Rule for the calls: active = growth percent below 10; inactive = the rest.
Return exactly one item of 1 (yes) for active, 0 (no) for inactive

IN: // return assay outcome for C/C1=C\CC[C@@]2(C)O[C@H]2[C@H]2OC(=O)C(CN3CCN(CC4C(=O)O[C@H]5[C@H]4CC/C(C)=C/CC[C@@]4(C)O[C@@H]54)CC3)[C@@H]2CC1 (stereo not given in full)
OUT: 0 (no)

IN: // return assay outcome for COc1cccc(-c2nc3sccn3c2-c2ccnc(NCCNS(=O)(=O)c3ccc(F)cc3)c2)c1
OUT: 1 (yes)
